cSrc (Homo sapiens (Human)): reported IC50 for various compounds.
Sequence (P12931 whole entry, looked up): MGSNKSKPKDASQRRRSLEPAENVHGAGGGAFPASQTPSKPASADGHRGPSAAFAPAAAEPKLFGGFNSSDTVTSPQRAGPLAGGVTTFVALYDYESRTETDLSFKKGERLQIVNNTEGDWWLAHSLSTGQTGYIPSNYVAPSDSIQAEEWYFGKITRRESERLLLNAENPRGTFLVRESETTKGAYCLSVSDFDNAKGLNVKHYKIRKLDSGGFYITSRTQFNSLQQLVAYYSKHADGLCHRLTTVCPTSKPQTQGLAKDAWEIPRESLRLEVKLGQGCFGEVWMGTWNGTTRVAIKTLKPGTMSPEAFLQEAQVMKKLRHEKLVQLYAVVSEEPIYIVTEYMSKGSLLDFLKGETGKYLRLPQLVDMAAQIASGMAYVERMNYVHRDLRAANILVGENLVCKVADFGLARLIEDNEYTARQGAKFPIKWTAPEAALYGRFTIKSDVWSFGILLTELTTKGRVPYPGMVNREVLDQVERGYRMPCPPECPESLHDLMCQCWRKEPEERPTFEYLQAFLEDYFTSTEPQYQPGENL
endpoint: IC50 (nM)

# compound, readout-units, comparison-sign, readout-value
data = [
    ("Cc1ccc(-n2nc(C(C)(C)C)cc2NC(=O)Nc2ccc(Oc3ccnc(Nc4ccc5ncn(C)c5c4)n3)c3ccccc23)cc1 [Example 31]", "nM", "=", 6),
    ("Cc1ccc(-n2nc(C(C)(C)C)cc2NC(=O)Nc2ccc(Oc3ccnc(Nc4ccc5c(c4)ncn5C)n3)c3ccccc23)cc1 [Example 4]", "nM", "=", 4),
    ("CC(C)(C)c1cc(NC(=O)Nc2ccc(Oc3ccnc(Nc4ccc5[nH]c(=O)oc5c4)n3)c3ccccc23)n(-c2ccc(OCCN3CCOCC3)cc2)n1 [Example 77]", "nM", "=", 27),
    ("CC(C)(C)c1cc(NC(=O)Nc2ccc(Oc3ccnc(Nc4ccc5c(cnn5CCN5CCOCC5)c4)n3)c3ccccc23)n(-c2ccc(OCCN3CCOCC3)cc2)n1 [Example 74]", "nM", "<", 1),
    ("Cc1cc(Nc2cc(Oc3ccc(NC(=O)Nc4cc(C(C)(C)C)nn4-c4ccc(OCCN5CCOCC5)cc4)c4ccccc34)ccn2)cc2cn[nH]c12 [Example 68]", "nM", "=", 3),
    ("Cc1ccc(-n2nc(C(C)(C)C)cc2NC(=O)Nc2ccc(Oc3ccnc(Nc4ccc5ncsc5c4)n3)c3ccccc23)cc1 [Example 35]", "nM", "=", 18),
    ("CC(C)(C)c1cc(NC(=O)Nc2ccc(Oc3ccnc(Nc4ccc5c(c4)CS(=O)(=O)C5)n3)c3ccccc23)n(-c2ccc(OCCN3CCOCC3)cc2)n1 [Example 64]", "nM", "=", 3),
    ("Cc1cc(Nc2nccc(Oc3ccc(NC(=O)Nc4cc(C(C)(C)C)nn4-c4ccc(OCCN5CCOCC5)cc4)c4ccccc34)n2)cc2cn[nH]c12 [Example 73]", "nM", "=", 5),
    ("Cc1ccc(-n2nc(C(C)(C)C)cc2NC(=O)Nc2ccc(Oc3ccnc(Nc4ccc5[nH]nnc5c4)n3)c3ccccc23)cc1 [Example 36]", "nM", "=", 14),
    ("CC(C)(C)c1cc(NC(=O)Nc2ccc(Oc3ccnc(Nc4ccc5[nH]ccc5c4)n3)c3ccccc23)n(-c2ccc(O)cc2)n1 [Example 37]", "nM", "=", 16),
    ("CC(C)(C)c1cc(NC(=O)Nc2ccc(Oc3ccnc(Nc4ccc5sncc5c4)n3)c3ccccc23)n(-c2ccc(OCCN3CCOCC3)cc2)n1 [Example 78]", "nM", "=", 8),
    ("COc1ccc(-n2nc(C(C)C)cc2NC(=O)Nc2ccc(Oc3cc(Nc4ccc5[nH]ncc5c4)ncn3)c3ccccc23)cc1 [Example 39]", "nM", "=", 11),
    ("CC(C)(C)c1cc(NC(=O)Nc2ccc(Oc3ccnc(Nc4ccc5[nH]ncc5c4)n3)c3ccccc23)n(-c2cccc(OCCN3CCOCC3)c2)n1 [Example 54]", "nM", "=", 7),
]

---

# Test system: Poly I:C-induced ICAM-1 expression in BEAS2B cells
# assay-overview: Poly I:C-induced ICAM-1 expression in BEAS2B cells
# Format: cell-based
# assay-context: Homo sapiens, BEAS-2B, read-out: Poly IC induced ICAM1 in BEAS2B IC50

# smiles-code, comparison-sign, IC50, nM
records = [
    ("CC(C)c1cc(NC(=O)Nc2ccc(Oc3ccnc(Nc4ccc5[nH]ncc5c4)n3)c3ccccc23)n(-c2cccc(OCCN3CCOCC3)c2)n1", "=", 38.5),
    ("CC(C)(C)c1cc(NC(=O)Nc2ccc(Oc3ccnc(Nc4ccc5[nH]ccc5c4)n3)c3ccccc23)n(-c2cccc(CN3CCCC3=O)c2)n1", "=", 6.9),
    ("COc1ccc(-n2nc(C(C)C)cc2NC(=O)Nc2ccc(Oc3ccnc(Nc4ccc5[nH]nc(C(=O)N(C)C)c5c4)n3)c3ccccc23)cc1", "=", 2.3),
    ("CC(C)(C)c1cc(NC(=O)Nc2ccc(Oc3ccnc(Nc4ccc5[nH]ncc5c4)n3)c3ccccc23)n(-c2cccc(CN3CCCC3=O)c2)n1", "=", 2.2),
    ("Cc1nc2cc(Nc3nccc(Oc4ccc(NC(=O)Nc5cc(C(C)(C)C)nn5-c5ccc(OCCN6CCOCC6)cc5)c5ccccc45)n3)ccc2[nH]1", "=", 16.3),
    ("Cc1n[nH]c2ccc(Nc3nccc(Oc4ccc(NC(=O)Nc5cc(C(C)(C)C)nn5-c5ccc(OCCN6CCOCC6)cc5)c5ccccc45)n3)cc12", "=", 165),
    ("Cc1ccc(-n2nc(C(C)(C)C)cc2NC(=O)Nc2ccc(Oc3ccnc(Nc4ccc5c(c4)NC(=O)C5)n3)c3ccccc23)cc1", "=", 1.4),
    ("COc1ccc(-n2nc(C(C)(C)C)cc2NC(=O)Nc2ccc(Oc3ccnc(Nc4ccc5[nH]ncc5c4)n3)c3ccccc23)cc1", "=", 2.4),
    ("Cc1ccc(-n2nc(C(C)(C)C)cc2NC(=O)Nc2ccc(Oc3ccnc(Nc4ccc5scnc5c4)n3)c3ccccc23)cc1", "=", 6.3),
    ("COc1ccc(-n2nc(C(C)(C)C)cc2NC(=O)Nc2ccc(Oc3ccnc(Nc4ccc5[nH]ncc5c4)n3)c3ccccc23)cn1", "=", 2.4),
    ("Cc1ccc(-n2nc(C(C)(C)C)cc2NC(=O)Nc2ccc(Oc3ccnc(Nc4cc(Cl)c5[nH]ncc5c4)n3)c3ccccc23)cc1", "=", 3.4),
    ("Cc1ccc(-n2nc(C(C)(C)C)cc2NC(=O)Nc2ccc(Oc3ccnc(Nc4ccc5c(ccn5C)c4)n3)c3ccccc23)cc1", "=", 1.9),
    ("CC(C)(C)c1cc(NC(=O)Nc2ccc(Oc3ccnc(Nc4ccc5sncc5c4)n3)c3ccccc23)n(-c2ccc(OCCN3CCOCC3)cc2)n1", "=", 7.9),
    ("Cc1cc(Nc2nccc(Oc3ccc(NC(=O)Nc4cc(C(C)(C)C)nn4-c4cccc(CN5CCCC5=O)c4)c4ccccc34)n2)cc2cn[nH]c12", "=", 3.9),
    ("Cc1ccc(-n2nc(C(C)(C)C)cc2NC(=O)Nc2ccc(Oc3ccnc(Nc4ccc5[nH]nnc5c4)n3)c3ccccc23)cc1", "=", 6.3),
    ("CC(C)(C)c1cc(NC(=O)Nc2ccc(Oc3ccnc(Nc4ccc5[nH]nnc5c4)n3)c3ccccc23)n(-c2ccc(OCCN3CCOCC3)cc2)n1", "=", 10),
    ("CC(C)c1cc(NC(=O)Nc2ccc(Oc3ccnc(Nc4ccc5c(c4)NC(=O)C5)n3)c3ccccc23)n(-c2ccc(OCCN3CCOCC3)cc2)n1", ">", 135),
    ("CC(C)c1cc(NC(=O)Nc2ccc(Oc3cc(Nc4ccc5[nH]ncc5c4)ncn3)c3ccccc23)n(-c2ccc(=O)n(CCO)c2)n1", ">", 152),
    ("Cc1n[nH]c2cc(Nc3nccc(Oc4ccc(NC(=O)Nc5cc(C(C)(C)C)nn5-c5ccc(OCCN6CCOCC6)cc5)c5ccccc45)n3)ccc12", "=", 2.2),
    ("Cc1ccc(-n2nc(C(C)(C)C)cc2NC(=O)Nc2ccc(Oc3ccnc(Nc4ccc5c(c4)CC(=O)N5)n3)c3ccccc23)cc1", "=", 2.4),
    ("CC(C)(C)c1cc(NC(=O)Nc2ccc(Oc3cc(Nc4ccc5[nH]ncc5c4)ncn3)c3ccccc23)n(-c2ccc(=O)n(CCO)c2)n1", "=", 52.4),
    ("COc1ccc(-n2nc(C(C)C)cc2NC(=O)Nc2ccc(Oc3ccnc(Nc4ccc5[nH]nc(OCCN6CCOCC6)c5c4)n3)c3ccccc23)cc1", "=", 1.4),
    ("Cc1ccc(-n2nc(C(C)(C)C)cc2NC(=O)Nc2ccc(Oc3ccnc(Nc4cccc5[nH]ccc45)n3)c3ccccc23)cc1", "=", 8.9),
    ("Cc1ccc(-n2nc(C(C)(C)C)cc2NC(=O)Nc2ccc(Oc3ccnc(Nc4cc(C)c5[nH]ncc5c4)n3)c3ccccc23)cc1", "=", 2.4),
    ("Cc1ccc(-n2nc(C(C)(C)C)cc2NC(=O)Nc2ccc(Oc3ccnc(Nc4ccc5[nH]ccc5c4)n3)c3ccccc23)cc1", "=", 4.7),
]

---

# Test system: LPS-induced IL-8 release in d-U937 cells
# assay-overview: LPS-induced IL-8 release in d-U937 cells
# Type: cell-based
# assay-context: Homo sapiens, dU937, read-out: LPS Induced Release of Cytokine in d-937 Cells IL-8 IC50
pIC50: −log10 of the molar value.
Form field: pIC50 (one value per entry).
endpoint: pIC50

# molecule, readout-value
records = [
    ("Cc1ccc(-n2nc(C(C)(C)C)cc2NC(=O)Nc2ccc(Oc3ccnc(Nc4cc(Cl)c5[nH]ncc5c4)n3)c3ccccc23)cc1 [Example 28]", 8.77),
    ("Cc1ccc(-n2nc(C(C)(C)C)cc2NC(=O)Nc2ccc(Oc3ccnc(Nc4cccc5[nH]ncc45)n3)c3ccccc23)cc1 [Example 21]", 8.30),
    ("Cc1ccc(-n2nc(C(C)(C)C)cc2NC(=O)Nc2ccc(Oc3ccnc(Nc4cccc5cn[nH]c45)n3)c3ccccc23)cc1 [Example 25]", 8.77),
    ("COc1ccc(-n2nc(C(C)(C)C)cc2NC(=O)Nc2ccc(Oc3ccnc(Nc4ccc5c(cnn5C)c4)n3)c3ccccc23)cc1 [Example 41]", 6.91),
    ("Cc1ccc(-n2nc(C(C)(C)C)cc2NC(=O)Nc2ccc(Oc3ccnc(Nc4ccc5c(ccn5C)c4)n3)c3ccccc23)cc1 [Example 18]", 8.24),
    ("COc1ccc(-n2nc(C3CCOC3)cc2NC(=O)Nc2ccc(Oc3ccnc(Nc4ccc5[nH]ncc5c4)n3)c3ccccc23)cc1 (stereo not drawn) [Example 8]", 8.44),
]
